# target.or.system: T1, 4H906-bA
# T1 chain: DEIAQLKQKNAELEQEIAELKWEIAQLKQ
# assay.details: two-hybrid library CCNG1;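 further: natural log of median RNA to DNA barcode read ratio; higher means stronger binding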
measured.property: interaction score
Form: value (number only, do not type unit).

See these solved cases before continuing.
INSERT INTO results (binder, measured_property, observed_value) VALUES
  ('DEIAQLKQEIAELKQKIAELKWENAQLEQ [4H619-bA]', 'interaction score', -1.09),
  ('DEIAQLKQEIAELKQEIAELKWKNAQLEQ [4H591-bA]', 'interaction score', -1.23),
  ('DKNAQLEQENAELKQKIAELEWEIAQLKQ [4H3298-bA]', 'interaction score', -0.638),
  ('DKNAQLEQEIAELKQENAELKWEIAQLKQ [4H3162-bA]', 'interaction score', -1.01);

Please look at the following binder next.
The value of interaction score measured for the binder DEIAQLKQKNAELEQEIAELKWEIAQLKQ [4H906-bA] turned out to be 0.95
